B1: CPEB3 Ribozyme (parent)
chain: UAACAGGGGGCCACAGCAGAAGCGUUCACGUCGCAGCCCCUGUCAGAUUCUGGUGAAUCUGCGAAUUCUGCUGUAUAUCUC

# Variants of: B1
# TEST_METHOD_NOTES: self-cleavage, relative activity (ratio to wild type); higher = more cleavage; in vitro, sequencing
For each entry below, report its self-cleavage value.
API note: the answer field is a bare number with no unit suffix.

Can you share its self-cleavage? I mean this variant: A3G C59A
0.62

// query: A2U C34U
0.24

# repeat for A21G U26C
0.29

And then U60A A64G , what is it?
0.43

Repeat for the following variant: A13U A28C
0.64

Okay, and U26C G30A ?
0.27

Proceed to C23A U60A
0.19

Now the same for "C37A"
0.28

Same lookup for A2C A64G , please.
0.74

Can you handle G10A U76A next?
0.23

Ok, now A28C U69A
0.17

Same question, A13G U31G this time
0.51

Can you handle C27A U43C next?
0.18

G10A C11U , same question.
0.5

Let us now turn to U51C C81U
1.15

Repeat for the following variant: G8A U74C
0.35

Would you mind doing A35G C59U as well?
1.2

For C38A U66A then?
0.12

Try the variant U1A A18C
0.53

Again, but for G7U U74C
0.46

Another variant to look at: U54A G73U
1.27

Thanks! And C14U U66C ?
0.8

// repeat for G42A C79A and report
0.33

Please do the same for U69A G70A as well.
0.24

What do we get for G9U A18C ?
0.18

And the next one, C59A U80C ?
0.38

Next up: G22U U26C
0.11

Also A18C U69C ?
0.35

Ok, now U43A U60A
0.53

Field entry: G8A A15U
0.16

Then what about the variant U49C U60G ?
0.13

# repeat for U26A U66G
0.42

Then A21U U41C ?
0.34

Would you mind doing G16A U60C as well?
0.19

Okay, and "U58A" ?
0.41

Input G8A C34U
0.39

Next up: A15G A56U
0.39

Now the same for A3C A15U
0.77

Another: A20U U60C
0.19
